- test_protocol: Rate of release of pheromone components from lures in laboratory wind tunnel
- Type: physicochemical
- condition_info: Interval 5 days, Vial; 27° C., 8 km/hr wind speed
Collected Mean release rate values appear next to each entry.
Form entry: value (ng/h) — number only.

// known answers, use as guide
1) CCCCCCC(=O)CCC(C)OC(C)=O (racemic) [racemic 2-acetoxy-5-undecanone, 2-acetoxy-5-undecanone]: 47.0
2) CCCCCCCCCC(C)OC(C)=O (racemic) [2-undecyl acetate, 2-acetoxyundecane]: 20.6

Problem: # get_value(readout='Mean release rate', item= CCCCCCCCCC(C)=O )
Result: 39.4

Problem: # get_value(readout='Mean release rate', item= CCCCCCCCCC(C)O (racemic) )
Result: 21.1

---

Collected Mean release rate values appear next to each entry.
- test_protocol: Rate of release of pheromone components from lures in laboratory wind tunnel
- Format: physicochemical
- condition_info: Interval 25 days, Vial; 27° C., 8 km/hr wind speed
Form entry: value (ng/h) — number only.

// known answers, use as guide
1. CCCCCCCCCC(C)=O [2-undecanone]: 21.6
2. CCCCCCCCCC(C)O (racemic) [2-undecanol]: 17.4
3. CCCCCCCCCC(C)OC(C)=O (racemic) [2-undecyl acetate, 2-acetoxyundecane]: 21.8

Problem: # get_value(readout='Mean release rate', item= CCCCCCC(=O)CCC(C)OC(C)=O (racemic) [racemic 2-acetoxy-5-undecanone, 2-acetoxy-5-undecanone] )
Result: 69.8

---

- test_protocol: Rate of release of pheromone components from lures in laboratory wind tunnel
- Format: physicochemical
- condition_info: Interval 11 days, Septa; 27° C., 8 km/hr wind speed
Collected Mean release rate values appear next to each entry.
Form entry: value (ng/h) — number only.

// known answers, use as guide
1. CCCCCCC(=O)CCC(C)OC(C)=O (racemic) [racemic 2-acetoxy-5-undecanone, 2-acetoxy-5-undecanone]: 33.8
2. CCCCCCCCCC(C)=O: 14.3
3. CCCCCCCCCC(C)O (racemic): 27.4

Problem: # get_value(readout='Mean release rate', item= CCCCCCCCCC(C)OC(C)=O (racemic) [2-undecyl acetate, 2-acetoxyundecane] )
Result: 14.5

---

- test_protocol: Rate of release of pheromone components from lures in laboratory wind tunnel
- Format: physicochemical
- condition_info: Interval 3 days, Septa; major component = 100
Collected Mean ratio (release rate to the major component) values appear next to each entry.
Please give the numeric answer without any surrounding text.

1. CCCCCCCCCC(C)=O [2-undecanone]: 26

Problem: # get_value(readout='Mean ratio (release rate to the major component)', item= CCCCCCCCCC(C)O (racemic) [2-undecanol] )
Result: 25

Problem: # get_value(readout='Mean ratio (release rate to the major component)', item= CCCCCCCCCC(C)OC(C)=O (racemic) [2-undecyl acetate, 2-acetoxyundecane] )
Result: 38

Problem: # get_value(readout='Mean ratio (release rate to the major component)', item= CCCCCCC(=O)CCC(C)OC(C)=O (racemic) [racemic 2-acetoxy-5-undecanone, 2-acetoxy-5-undecanone] )
Result: 100

---

- test_protocol: Rate of release of pheromone components from lures in laboratory wind tunnel
- Assay type: physicochemical
- condition_info: Interval 3 days, Septa; 27° C., 8 km/hr wind speed
Collected Mean release rate values appear next to each entry.
Form entry: value (ng/h) — number only.

Problem: # get_value(readout='Mean release rate', item= CCCCCCCCCC(C)=O [2-undecanone] )
Result: 21.6

Problem: # get_value(readout='Mean release rate', item= CCCCCCCCCC(C)OC(C)=O (racemic) [2-undecyl acetate, 2-acetoxyundecane] )
Result: 30.8

Problem: # get_value(readout='Mean release rate', item= CCCCCCCCCC(C)O (racemic) [2-undecanol] )
Result: 20.2

Problem: # get_value(readout='Mean release rate', item= CCCCCCC(=O)CCC(C)OC(C)=O (racemic) [racemic 2-acetoxy-5-undecanone, 2-acetoxy-5-undecanone] )
Result: 81.8

---

- test_protocol: Rate of release of pheromone components from lures in laboratory wind tunnel
- Format: physicochemical
- condition_info: Interval 5 days, Vial; major component = 100
Collected Mean ratio (release rate to the major component) values appear next to each entry.
Please give the numeric answer without any surrounding text.

// known answers, use as guide
1. CCCCCCCCCC(C)O (racemic): 45
2. CCCCCCC(=O)CCC(C)OC(C)=O (racemic) [racemic 2-acetoxy-5-undecanone, 2-acetoxy-5-undecanone]: 100

Problem: # get_value(readout='Mean ratio (release rate to the major component)', item= CCCCCCCCCC(C)=O )
Result: 84

Problem: # get_value(readout='Mean ratio (release rate to the major component)', item= CCCCCCCCCC(C)OC(C)=O (racemic) [2-undecyl acetate, 2-acetoxyundecane] )
Result: 44

The reported numbers originate from patent US8071117B2.
